Experiment: CHI Log D procedure
Format: physicochemical
Settings: pH 7.4
// reported CHI Log D per item
// response body must contain only the number

Worked examples follow.
{"compound": "CC(=O)N1CCC[C@]12CC=CCCCC1(CCCC=CCCCCCC[C@@](C)(C(=O)N[C@@H](Cc3ccccc3)C(=O)N[C@@H](Cc3csc4ccccc34)C(=O)N[C@@H](CCC(N)=O)C(N)=O)NC(=O)[C@H](C(C)C)NC(=O)[C@H](Cc3cccc(F)c3F)NC(=O)[C@H](C)NC(=O)[C@H](C)NC(=O)[C@H](CCC(=O)O)NC(=O)[C@H](CC(=O)O)NC1=O)NC(=O)[C@H](C)NC(=O)[C@H](CC(=O)O)NC2=O (stereo partly drawn) [I-390]", "CHI Log D": 2.587}
{"compound": "CC[C@H](C)[C@@H]1NC(=O)[C@H](CC(=O)O)NC(=O)[C@]2(CC=CCCCC3(CCCC=CCCCCCC[C@@](C)(C(=O)N[C@@H](Cc4ccccc4)C(=O)N[C@@H](Cc4csc5ccccc45)C(=O)N[C@@H](CCC(N)=O)C(N)=O)NC(=O)[C@H](CCC(N)=O)NC(=O)[C@H](Cc4ccccc4)NC(=O)[C@H](C)NC(=O)[C@H](C)NC(=O)[C@H](CCC(=O)O)NC(=O)[C@H](CNS(=O)(=O)C(F)(F)F)NC3=O)NC1=O)CCCN2C(C)=O (stereo partly drawn) [I-631]", "CHI Log D": 4.365}

Continue with the compound presented below.
Qu. Give recorded CHI Log D. CC[C@H](C)[C@@H]1NC(=O)[C@H](CC(=O)O)NC(=O)[C@]2(CC=CCCCC3(CCCC=CCCCCCC[C@@](C)(C(=O)N[C@@H](Cc4ccccc4)C(=O)N[C@@H](Cc4csc5ccccc45)C(=O)N[C@@H](CCC(N)=O)C(N)=O)NC(=O)[C@H](CCC(N)=O)NC(=O)[C@H](Cc4ccccc4)NC(=O)[C@H](C)NC(=O)[C@H](Cc4ccccc4)NC(=O)[C@H](CCC(=O)O)NC(=O)[C@H](CC(=O)O)NC3=O)NC1=O)CCCN2C(C)=O (stereo partly drawn) [I-650]
Ans. 2.718

Cited source for all entries: patent US20240116985A1
